TARGET_OR_TEST_SYSTEM: Mas-related G-protein coupled receptor member X1 (Homo sapiens) (UniProt Q96LB2)
Sequence (Q96LB2 whole entry, looked up): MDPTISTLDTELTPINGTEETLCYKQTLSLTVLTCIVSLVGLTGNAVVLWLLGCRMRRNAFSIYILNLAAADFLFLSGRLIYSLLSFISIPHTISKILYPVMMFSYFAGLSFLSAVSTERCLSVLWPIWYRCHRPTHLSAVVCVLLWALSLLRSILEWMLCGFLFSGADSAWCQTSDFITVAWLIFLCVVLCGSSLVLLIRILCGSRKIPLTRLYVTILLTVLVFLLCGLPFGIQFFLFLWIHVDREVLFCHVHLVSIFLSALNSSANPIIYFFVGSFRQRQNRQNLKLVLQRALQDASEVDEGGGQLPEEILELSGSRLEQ
ASSAY_OVERVIEW: blockade of BAM8-22-evoked MrgX1 calcium response – HEK293 cells, Fluo-4 calcium flux, primary screen (AID 588676)
MEASUREMENT_CONTEXT: Fluo-4, BAM8-22 antagonism, at 10 µM
The campaign covered roughly 310,000 compounds. About 3,900 (1.3%) were called active.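 The calls were made as follows: active = calcium-response B-score plate-corrected more than 3 library SD below zero, starting fluorescence within 5 deviations, no agonist response on first addition; inactive = the rest.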 This excerpt belongs to a sample that is enriched for actives.
Parameter call: string, one of yes for active, no for inactive

I would be grateful if you could indicate the recorded call for `O=C(O)CCc1nc2cc(Cl)ccc2n(Cc2ccccc2)c1=O` .
no

I would be grateful if you could indicate the recorded call for `O=S(=O)(NC1CCCC1)c1ccc(-n2cnnn2)cc1` .
no

I would be grateful if you could indicate the recorded call for `COc1ccc(-c2[nH]nc(-c3ccccc3)c2-c2nc3ccccc3[nH]2)cc1` .
no

I would be grateful if you could indicate the recorded call for CCC(=O)NC(Nc1nc2ccc(C)cc2s1)(C(=O)OC)C(F)(F)F (stereo not given) .
no

I would be grateful if you could indicate the recorded call for Cc1c(C(=O)NCC(c2ccco2)N2CCCC2)oc2ccc(Cl)cc12 (stereo not given) .
no

I would be grateful if you could indicate the recorded call for `Cc1ccccc1OCC(=O)NNC(=O)c1cc(S(=O)(=O)N(C)C)ccc1N1CCCC1` .
yes

I would be grateful if you could indicate the recorded call for `COc1ccc(NC(=O)CN(Cc2ccccc2)S(C)(=O)=O)cc1OC` .
no

I would be grateful if you could indicate the recorded call for `c1cc(-n2cnnn2)ccc1NC1=NCCC1` .
yes

I would be grateful if you could indicate the recorded call for COc1ccc(N2CC(NS(=O)(=O)c3ccc4ccccc4c3)CC2=O)cc1 (stereo not given) .
no

I would be grateful if you could indicate the recorded call for `CN(C)S(=O)(=O)c1ccc(N2CCCC2)c(C(=O)NCc2ccccc2)c1` .
no

---

TARGET_OR_TEST_SYSTEM: Mas-related G-protein coupled receptor member X1 (Homo sapiens)
ASSAY_OVERVIEW: blockade of BAM8-22-evoked MrgX1 calcium response – HEK293 cells, Fluo-4 calcium flux, primary screen (AID 588676)
MEASUREMENT_CONTEXT: Fluo-4, BAM8-22 antagonism, at 10 µM
In all, about 310,000 compounds went through this assay and about 3,900 (1.3%) were called active.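 Rule for the calls: active = calcium-response B-score plate-corrected more than 3 library SD below zero, starting fluorescence within 5 deviations, no agonist response on first addition; inactive = the rest.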 Many of the other results were omitted from the sample, so actives are more common in it than they were.
Parameter call: string, one of Yes = active, No = inactive

I would be grateful if you could indicate the recorded call for `Cc1ccc(OCCCn2c(=O)oc3ccccc32)cc1` .
No

I would be grateful if you could indicate the recorded call for NC1=NC(=O)C2(COC(c3ccccc3Cl)OC2)S1 (stereo not given) .
No

I would be grateful if you could indicate the recorded call for `O=C(NNC(=O)c1csc(-c2cccnc2)n1)Nc1ccc(Cl)cc1` .
No

I would be grateful if you could indicate the recorded call for Cc1ccc(C(C(=O)NC2CCCCC2)N(C(=O)c2csnn2)C2CC2)o1 (stereo not given) .
Yes

I would be grateful if you could indicate the recorded call for `O=c1[nH]snc1-c1c(Cl)cccc1Cl` .
No

I would be grateful if you could indicate the recorded call for `CCn1c(COc2cccc(OC)c2)nnc1SCC(=O)N1CCOCC1` .
No

I would be grateful if you could indicate the recorded call for `COc1cc(CN(C)Cc2nc3cc(C(F)(F)F)ccc3c(=O)[nH]2)ccc1OC(F)F` .
No

I would be grateful if you could indicate the recorded call for `Cn1cccc1Cc1nnc(SCC(=O)NCc2ccc3c(c2)OCO3)n1CCc1ccccc1` .
No

I would be grateful if you could indicate the recorded call for O=c1cc(CO)oc(C(Nc2cccc([N+](=O)[O-])c2)c2ccccn2)c1O (stereo not given) .
Yes

I would be grateful if you could indicate the recorded call for `CCOC(=O)Cc1csc(SCc2cc(=O)oc3cc(O)ccc23)n1` .
Yes

---

TARGET_OR_TEST_SYSTEM: Mas-related G-protein coupled receptor member X1 (Homo sapiens)
ASSAY_OVERVIEW: blockade of BAM8-22-evoked MrgX1 calcium response – HEK293 cells, Fluo-4 calcium flux, primary screen (AID 588676);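 as to B-score: peak minus trough fluorescence over baseline after final BAM8-22 challenge near maximal dose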
MEASUREMENT_CONTEXT: Fluo-4, BAM8-22 antagonism, at 10 µM; stronger effect = lower value
Out of some 310,000 compounds screened, about 3,900 (1.3%) were called active. The entries come from a sample that favours actives as a whole.
ENDPOINT_NAME: B-score

{"columns": ["COMPOUND", "B-score"],
 "data": [
  ["COc1ccc(C(=O)CSc2n[nH]c(N)n2)cc1", "-4.92 (active)"],
  ["CCCC(=O)Nc1ccc2c(c1)nc(CCNC(=O)c1ccco1)n2C", "inactive"],
  ["COCC(=O)Nc1ccc(Br)cc1", "inactive"],
  ["CCOCCCn1c(NN)nc2ccccc2c1=O", "inactive"],
  ["CCc1cc2c(NC3CCCC3)ncnc2s1", "inactive"]
]}

I have this compound here, `COc1cc(C)c(Cl)cc1S(=O)(=O)n1ccnc1` , and I need its recorded B-score.
inactive

I have this compound here, `O=C(c1ccccc1)N1CCN(c2ccc([N+](=O)[O-])c(NCc3ccco3)c2)CC1` , and I need its recorded B-score.
inactive

I have this compound here, `Cc1ccc(S(=O)(=O)Nc2nc3ccccc3s2)cc1[N+](=O)[O-]` , and I need its recorded B-score.
inactive

---

TARGET_OR_TEST_SYSTEM: Mas-related G-protein coupled receptor member X1 (Homo sapiens) (UniProt Q96LB2)
ASSAY_OVERVIEW: blockade of BAM8-22-evoked MrgX1 calcium response – HEK293 cells, Fluo-4 calcium flux, primary screen (AID 588676)
MEASUREMENT_CONTEXT: Fluo-4, BAM8-22 antagonism, at 10 µM
Out of some 310,000 compounds screened, about 3,900 (1.3%) were called active.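 Rule for the calls: active = calcium-response B-score plate-corrected more than 3 library SD below zero, starting fluorescence within 5 deviations, no agonist response on first addition; inactive = the rest.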 This is one part of a sample in which actives are shown more often than they occur.
Parameter call: string, one of active, inactive

I would be grateful if you could indicate the recorded call for `CCc1cc2c(SCC(=O)Nc3ncc(Cl)c(C)c3Cl)ncnc2s1` .
active

I would be grateful if you could indicate the recorded call for `COc1ccc(C(=O)CSc2nccc(=O)[nH]2)cc1` .
inactive

I would be grateful if you could indicate the recorded call for `O=C(NCc1ccccn1)c1ccc2nc(-c3ccco3)c(-c3ccco3)nc2c1` .
inactive

I would be grateful if you could indicate the recorded call for COc1cc(CN2CCNC(=O)C2CC(=O)NCCc2ncccc2C)cc(OC)c1 (centres undefined) .
inactive
